assayed system: T1, Centromere B (UniProt P07199)
T1 sequence (looked up): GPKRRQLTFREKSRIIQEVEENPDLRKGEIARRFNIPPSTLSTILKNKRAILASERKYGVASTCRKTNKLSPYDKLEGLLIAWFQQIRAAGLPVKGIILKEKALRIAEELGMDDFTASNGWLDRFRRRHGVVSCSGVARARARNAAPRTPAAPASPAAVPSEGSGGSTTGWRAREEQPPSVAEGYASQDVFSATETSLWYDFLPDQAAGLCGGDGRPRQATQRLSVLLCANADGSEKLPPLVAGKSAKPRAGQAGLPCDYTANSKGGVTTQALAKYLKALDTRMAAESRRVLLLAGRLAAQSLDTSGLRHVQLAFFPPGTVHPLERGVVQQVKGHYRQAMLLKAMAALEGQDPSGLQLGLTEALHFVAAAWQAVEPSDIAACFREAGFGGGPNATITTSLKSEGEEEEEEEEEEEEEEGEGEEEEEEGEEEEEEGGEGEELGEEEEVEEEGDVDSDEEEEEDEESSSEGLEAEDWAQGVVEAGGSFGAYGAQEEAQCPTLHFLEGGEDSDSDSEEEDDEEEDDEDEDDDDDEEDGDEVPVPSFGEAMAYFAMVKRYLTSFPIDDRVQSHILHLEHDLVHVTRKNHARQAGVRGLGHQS
protocol description: AtheNA, Ab 6.25 ug/ml
List of Athena reading (relative luminescence units) values.
assay readout: Athena reading (relative luminescence units)

{"binder": "CH235_4A (antibody, from a related filing, V domains shown) VH: QVQLVQSGAEVKKPGASVTVSCQASGYTFTNYYVHWVRQAPGQGLQLMGWIDPSWGRTNYAQNFQGRITMTRDTSTSTVYMEMRSLRSEDTAVYYCARNVATEGSLLHYDYWGQGTLVTVSA VL: EIVLTQSPATLSVSPGERATLSCRASQSVRSNLAWYQQRPGQAPRLLIYGTSTRATGVPARFSGRGSGTEFTLAISSMQSEDFAVYLCLQYNNWWTFGQGTKVEIK", "readout value": 3}
{"binder": "CH239_4A/293i (antibody, from a related filing, V domains shown) VH: QVQLVQSGAEVRKPGASVTVSCKASGYTFNNFYVHWVRQAPGQGLECMGWIDPSVGRINYAQKFQGRVTMTRDRSTSTVYMGLSSLRSEDTAIYYCVRDVGTEGSLLHFDHWGQGTLVIVSA VL: EIVLTQSPATLSVSPGERATLSCRATQSVRSNVAWYQQKPGQAPRLLIYSASTRATGIPARFSGSGSGTEFTLTIASMQSEDFAVYYCLQYDDWWTFGQGTKVEIK", "readout value": 260}
{"binder": "CH240_4A/293i (antibody, from a related filing, V domains shown) VH: QVQLVQSGTEVRKPGASVTISCKASGYTFNNFYVHWVRQAPGQGLECMGWIDPSVGRISYGQKFQGRVTMTRDRSTSTVYMGLSSLRSEDTAMYYCVRDVGTEGSLLHFDHWGQGTLVIVSA VL: EIVLTQSPATLSVSPGERATLSCRATQSVRSNLAWYQQKRGQAPRLLIYSASTRATGIPARFSGSGSGTEFTLTISSVQSEDFAVYYCLQYNNWWTFGQGTKVEIK", "readout value": 8}
